TEST TARGET: 9H4 IgG
ASSAY TEXT: SPR competition binding assay, mAb 9H4
TEST CONDITIONS: SPR competition assay (Biacore T200); 3D7 MSP2 immobilised on CM5 chip; eight three-fold dilutions of peptide from 10 µM with 50 nM 9H4 IgG; alanine scan of 16-residue MSP2_207–222; read-out: Kd against 9H4 IgG
Where a SMILES comes first, the peptide text is derived from it. Bridges are numbered along the chain shown (N, C = ends).
The label Y is reserved for Kd strictly under 2000 nM; N covers values equal to or above it.

The following molecules have reported results that may help.
- MOLECULE: "CC(=O)N[C@@H](C)C(=O)N[C@@H](CCC(N)=O)C(=O)N[C@@H](CCCCN)C(=O)N[C@@H](CCC(=O)O)C(=O)N[C@H]1CSSC[C@@H](C(=O)NCC(=O)N[C@@H](C)C(=O)N[C@@H](C)C(N)=O)NC(=O)[C@H](CC(N)=O)NC(=O)[C@H](CCC(=O)O)NC(=O)[C@H](CCCCN)NC(=O)[C@H](CC(N)=O)NC(=O)CNC(=O)[C@H](CC(=O)O)NC(=O)[C@H]([C@@H](C)O)NC1=O [Peptide S207A] (Ac-AQKECTDGNKENCGAA-NH2; disulfide 5-13)"
  CATEGORY: "N"
- MOLECULE: "CC(=O)N[C@@H](CO)C(=O)N[C@@H](CCC(N)=O)C(=O)N[C@@H](CCCCN)C(=O)N[C@@H](CCC(=O)O)C(=O)N[C@H]1CSSC[C@@H](C(=O)NCC(=O)N[C@@H](C)C(=O)N[C@@H](C)C(N)=O)NC(=O)[C@H](CC(N)=O)NC(=O)[C@H](C)NC(=O)[C@H](CCCCN)NC(=O)[C@H](CC(N)=O)NC(=O)CNC(=O)[C@H](CC(=O)O)NC(=O)[C@H]([C@@H](C)O)NC1=O [Peptide E217A] (Ac-SQKECTDGNKANCGAA-NH2; disulfide 5-13)"
  CATEGORY: "Y"
- MOLECULE: "CC(=O)N[C@@H](CO)C(=O)N[C@@H](CCC(N)=O)C(=O)N[C@@H](C)C(=O)N[C@@H](CCC(=O)O)C(=O)N[C@H]1CSSC[C@@H](C(=O)NCC(=O)N[C@@H](C)C(=O)N[C@@H](C)C(N)=O)NC(=O)[C@H](CC(N)=O)NC(=O)[C@H](CCC(=O)O)NC(=O)[C@H](CCCCN)NC(=O)[C@H](CC(N)=O)NC(=O)CNC(=O)[C@H](CC(=O)O)NC(=O)[C@H]([C@@H](C)O)NC1=O [Peptide K209A] (Ac-SQAECTDGNKENCGAA-NH2; disulfide 5-13)"
  CATEGORY: "N"

// query Consider CC(=O)N[C@@H](CO)C(=O)N[C@@H](CCC(N)=O)C(=O)N[C@@H](CCCCN)C(=O)N[C@@H](CCC(=O)O)C(=O)N[C@H]1CSSC[C@@H](C(=O)NCC(=O)N[C@@H](C)C(=O)N[C@@H](C)C(N)=O)NC(=O)[C@H](CC(N)=O)NC(=O)[C@H](CCC(=O)O)NC(=O)[C@H](CCCCN)NC(=O)[C@H](CC(N)=O)NC(=O)CNC(=O)[C@H](CC(=O)O)NC(=O)[C@H]([C@@H](C)O)NC1=O [3D7-MSP2_207–222 (WT)] (Ac-SQKECTDGNKENCGAA-NH2; disulfide 5-13) . Does its Kd lie strictly below 2000 nM?
// result Y

// query Consider CC(=O)N[C@@H](CO)C(=O)N[C@@H](CCC(N)=O)C(=O)N[C@@H](CCCCN)C(=O)N[C@@H](CCC(=O)O)C(=O)N[C@H]1CSSC[C@@H](C(=O)NCC(=O)N[C@@H](C)C(=O)N[C@@H](C)C(N)=O)NC(=O)[C@H](CC(N)=O)NC(=O)[C@H](CCC(=O)O)NC(=O)[C@H](CCCCN)NC(=O)[C@H](C)NC(=O)CNC(=O)[C@H](CC(=O)O)NC(=O)[C@H]([C@@H](C)O)NC1=O [Peptide N215A] (Ac-SQKECTDGAKENCGAA-NH2; disulfide 5-13) . Does its Kd lie strictly below 2000 nM?
// result Y

* * *

The following molecules are listed with their measured Kd values.
TEST TARGET: 9H4 IgG
ASSAY TEXT: SPR competition binding assay, mAb 9H4
Design: species or system mouse
TEST CONDITIONS: SPR competition assay (Biacore T200); 3D7 MSP2 immobilised on CM5 chip; eight three-fold dilutions of peptide from 10 µM with 50 nM 9H4 IgG; alanine scan of 16-residue MSP2_207–222; read-out: Kd against 9H4 IgG
Where a SMILES comes first, the peptide text is derived from it. Bridges are numbered along the chain shown (N, C = ends).
// return numeric value only (unit: nM, not printed)

- MOLECULE: "CC(=O)N[C@@H](CO)C(=O)N[C@@H](CCC(N)=O)C(=O)N[C@@H](CCCCN)C(=O)N[C@@H](CCC(=O)O)C(=O)N[C@H]1CSSC[C@@H](C(=O)NCC(=O)N[C@@H](C)C(=O)N[C@@H](C)C(N)=O)NC(=O)[C@H](CC(N)=O)NC(=O)[C@H](CCC(=O)O)NC(=O)[C@H](C)NC(=O)[C@H](CC(N)=O)NC(=O)CNC(=O)[C@H](CC(=O)O)NC(=O)[C@H]([C@@H](C)O)NC1=O [Peptide K216A] (Ac-SQKECTDGNAENCGAA-NH2; disulfide 5-13)"
  Kd / nM: 90
- MOLECULE: "CC(=O)N[C@@H](CO)C(=O)N[C@@H](C)C(=O)N[C@@H](CCCCN)C(=O)N[C@@H](CCC(=O)O)C(=O)N[C@H]1CSSC[C@@H](C(=O)NCC(=O)N[C@@H](C)C(=O)N[C@@H](C)C(N)=O)NC(=O)[C@H](CC(N)=O)NC(=O)[C@H](CCC(=O)O)NC(=O)[C@H](CCCCN)NC(=O)[C@H](CC(N)=O)NC(=O)CNC(=O)[C@H](CC(=O)O)NC(=O)[C@H]([C@@H](C)O)NC1=O [Peptide Q208A] (Ac-SAKECTDGNKENCGAA-NH2; disulfide 5-13)"
  Kd / nM: 2900

Summary for this molecule, CC(=O)N[C@@H](CO)C(=O)N[C@@H](CCC(N)=O)C(=O)N[C@@H](CCCCN)C(=O)N[C@@H](CCC(=O)O)C(=O)N[C@H]1CSSC[C@@H](C(=O)NCC(=O)N[C@@H](C)C(=O)N[C@@H](C)C(N)=O)NC(=O)[C@H](CC(N)=O)NC(=O)[C@H](CCC(=O)O)NC(=O)[C@H](CCCCN)NC(=O)[C@H](CC(N)=O)NC(=O)CNC(=O)[C@H](CC(=O)O)NC(=O)[C@H](C)NC1=O [Peptide T212A] (Ac-SQKECADGNKENCGAA-NH2; disulfide 5-13) : Kd is 4800

Summary for this molecule, CC(=O)N[C@@H](CO)C(=O)N[C@@H](CCC(N)=O)C(=O)N[C@@H](CCCCN)C(=O)N[C@@H](CCC(=O)O)C(=O)N[C@H]1CSSC[C@@H](C(=O)NCC(=O)N[C@@H](C)C(=O)N[C@@H](C)C(N)=O)NC(=O)[C@H](C)NC(=O)[C@H](CCC(=O)O)NC(=O)[C@H](CCCCN)NC(=O)[C@H](CC(N)=O)NC(=O)CNC(=O)[C@H](CC(=O)O)NC(=O)[C@H]([C@@H](C)O)NC1=O [Peptide N218A] (Ac-SQKECTDGNKEACGAA-NH2; disulfide 5-13) : Kd is 2700

Summary for this molecule, CC(=O)N[C@@H](CO)C(=O)N[C@@H](CCC(N)=O)C(=O)N[C@@H](CCCCN)C(=O)N[C@@H](CCC(=O)O)C(=O)N[C@H]1CSSC[C@@H](C(=O)NCC(=O)N[C@@H](C)C(=O)N[C@@H](C)C(N)=O)NC(=O)[C@H](CC(N)=O)NC(=O)[C@H](CCC(=O)O)NC(=O)[C@H](CCCCN)NC(=O)[C@H](CC(N)=O)NC(=O)[C@H](C)NC(=O)[C@H](CC(=O)O)NC(=O)[C@H]([C@@H](C)O)NC1=O [Peptide G214A] (Ac-SQKECTDANKENCGAA-NH2; disulfide 5-13) : Kd is 70

* * *

TEST TARGET: 4D11 IgG
ASSAY TEXT: SPR competition binding assay, mAb 4D11
Design: species or system mouse
TEST CONDITIONS: SPR competition assay (Biacore T200); 3D7 MSP2 immobilised on CM5 chip; eight three-fold dilutions of peptide from 10 µM with 50 nM 4D11 IgG; alanine scan of 16-residue MSP2_207–222; read-out: Kd against 4D11 IgG
Experimental: Affinities for peptide epitopes and dimer peptides to 4D11 and 9H4 IgG were measured by surface plasmon resonance (SPR) (Biacore T200, GE Healthcare, Parramatta, Australia) using a competition assay method developed previously. First, 3D7 MSP2 was immobilised on a CM5 chip. To determine binding, eight three-fold dilutions of peptide, from 10 µM stock were added with 50 nM 4D11/9H4 IgG to compete with the immobilised antigen. […]
Where a SMILES comes first, the peptide text is derived from it. Bridges are numbered along the chain shown (N, C = ends).
The label condition met is reserved for Kd strictly under 40 µM; condition not met covers values equal to or above it.

- COMPOUND: "CC(=O)N[C@@H](CO)C(=O)N[C@@H](CCC(N)=O)C(=O)N[C@@H](CCCCN)C(=O)N[C@@H](CCC(=O)O)C(=O)N[C@H]1CSSC[C@@H](C(=O)NCC(=O)N[C@@H](C)C(=O)N[C@@H](C)C(N)=O)NC(=O)[C@H](CC(N)=O)NC(=O)[C@H](C)NC(=O)[C@H](CCCCN)NC(=O)[C@H](CC(N)=O)NC(=O)CNC(=O)[C@H](CC(=O)O)NC(=O)[C@H]([C@@H](C)O)NC1=O [Peptide E217A] (Ac-SQKECTDGNKANCGAA-NH2; disulfide 5-13)"
  CATEGORY: "condition not met"

// query Consider CC(=O)N[C@@H](CO)C(=O)N[C@@H](CCC(N)=O)C(=O)N[C@@H](CCCCN)C(=O)N[C@@H](CCC(=O)O)C(=O)N[C@H]1CSSC[C@@H](C(=O)NCC(=O)N[C@@H](C)C(=O)N[C@@H](C)C(N)=O)NC(=O)[C@H](CC(N)=O)NC(=O)[C@H](CCC(=O)O)NC(=O)[C@H](CCCCN)NC(=O)[C@H](CC(N)=O)NC(=O)CNC(=O)[C@H](CC(=O)O)NC(=O)[C@H]([C@@H](C)O)NC1=O [3D7-MSP2_207–222 (WT)] (Ac-SQKECTDGNKENCGAA-NH2; disulfide 5-13) . Does its Kd lie strictly below 40 µM?
// result condition met

// query Consider CC(=O)N[C@@H](CO)C(=O)N[C@@H](CCC(N)=O)C(=O)N[C@@H](CCCCN)C(=O)N[C@@H](CCC(=O)O)C(=O)N[C@H]1CSSC[C@@H](C(=O)N[C@@H](C)C(=O)N[C@@H](C)C(=O)N[C@@H](C)C(N)=O)NC(=O)[C@H](CC(N)=O)NC(=O)[C@H](CCC(=O)O)NC(=O)[C@H](CCCCN)NC(=O)[C@H](CC(N)=O)NC(=O)CNC(=O)[C@H](CC(=O)O)NC(=O)[C@H]([C@@H](C)O)NC1=O [Peptide G220A] (Ac-SQKECTDGNKENCAAA-NH2; disulfide 5-13) . Does its Kd lie strictly below 40 µM?
// result condition not met

// query Consider CC(=O)N[C@@H](CO)C(=O)N[C@@H](CCC(N)=O)C(=O)N[C@@H](CCCCN)C(=O)N[C@@H](CCC(=O)O)C(=O)N[C@H]1CSSC[C@@H](C(=O)NCC(=O)N[C@@H](C)C(=O)N[C@@H](C)C(N)=O)NC(=O)[C@H](CC(N)=O)NC(=O)[C@H](CCC(=O)O)NC(=O)[C@H](CCCCN)NC(=O)[C@H](C)NC(=O)CNC(=O)[C@H](CC(=O)O)NC(=O)[C@H]([C@@H](C)O)NC1=O [Peptide N215A] (Ac-SQKECTDGAKENCGAA-NH2; disulfide 5-13) . Does its Kd lie strictly below 40 µM?
// result condition met

// query Consider CC(=O)N[C@@H](CO)C(=O)N[C@@H](CCC(N)=O)C(=O)N[C@@H](CCCCN)C(=O)N[C@@H](CCC(=O)O)C(=O)N[C@H]1CSSC[C@@H](C(=O)NCC(=O)N[C@@H](C)C(=O)N[C@@H](C)C(N)=O)NC(=O)[C@H](C)NC(=O)[C@H](CCC(=O)O)NC(=O)[C@H](CCCCN)NC(=O)[C@H](CC(N)=O)NC(=O)CNC(=O)[C@H](CC(=O)O)NC(=O)[C@H]([C@@H](C)O)NC1=O [Peptide N218A] (Ac-SQKECTDGNKEACGAA-NH2; disulfide 5-13) . Does its Kd lie strictly below 40 µM?
// result condition met
